All values here come from paper PMC7703574.

Experiment: Metabolic stability in human liver microsomes
Assay type: in vitro ADME
measure_name: microsomal CLint

Need microsomal CLint of Cc1cc(-c2ccc(C(F)(F)F)cn2)[nH]c1C(=O)N[C@@H](CN)c1ncc(CO)s1 [Compound 8] , thanks.
< 11.6 µL/min/mg

* * *

Assay: Cytotoxicity in TZM-bl cells
Type: cell-based
Conditions: human
measure_name: CC50 at 3 d

Which CC50 at 3 d is reported for this compound? NC[C@@H](NC(=O)c1ccc(-c2ccc(F)cn2)[nH]1)c1nc(CO)cs1
> 138 µM

State the recorded CC50 at 3 d for this entry: NC[C@H](NC(=O)c1ccc(-c2ccc(C(F)(F)F)cn2)[nH]1)c1ncc(CO)s1
> 122 µM

Need CC50 at 3 d, item COc1cc(-c2ccc(C(=O)N[C@H](CN)c3nc(CO)cs3)[nH]2)ccn1
> 133 µM

Please report the recorded CC50 at 3 d for NC[C@@H](NC(=O)c1ccc(-c2ccc(Cl)nc2)[nH]1)c1nc(CO)cs1 .
> 132 µM

Recorded CC50 at 3 d for NC[C@@H](NC(=O)c1ccc(-c2ncc(Cl)cn2)[nH]1)c1nc(CO)cs1 , please?
> 66 µM

What does the data say about its CC50 at 3 d? Entry: NC[C@H](NC(=O)c1ccc(-c2ccc(Cl)cn2)[nH]1)c1nc(CO)cs1
> 132 µM

# query: CC50 at 3 d of entry NC[C@@H](NC(=O)c1ccc(-c2ccc(C(F)(F)F)cn2)[nH]1)c1nc(C(O)CO)cs1 (stereo partly drawn)
> 113 µM

Value lookup for CC50 at 3 d; key = NC[C@@H](NC(=O)c1ccc(-c2ccc(C(F)(F)F)nc2)[nH]1)c1nc(CO)cs1
> 122 µM

Which value of CC50 at 3 d has been reported for NC[C@H](NC(=O)c1ccc(-c2ccc(C(F)(F)F)cn2)[nH]1)c1nc(CO)c(CO)s1 in the records?
> 113 µM

Please report the recorded CC50 at 3 d for NC[C@@H](NC(=O)c1ccc(-c2ccc(C(F)(F)F)cn2)[nH]1)c1ncc(C(O)CO)s1 (stereo partly drawn) .
> 113 µM

Consider the compound Cc1ccc(-c2ccc(C(=O)N[C@H](CN)c3nc(CO)cs3)[nH]2)nc1 and give its measured CC50 at 3 d.
> 140 µM

Name the reported CC50 at 3 d value associated with the compound NC[C@H](NC(=O)c1ccc(-c2ccc(C(F)(F)F)nn2)[nH]1)c1nc(CO)cs1
> 73 µM
